system: K4 kissing-loop RNA reporter; assay: apparent KD of K4 kissing-loop reporter; higher = weaker reporter binding; settings: Eterna round: R107; input ligand: FMN 200 uM;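 note: bound reporter read as fluorescence of individual clusters on recovered sequencing chips by microscopy, with normalized cluster intensities fitted with a binding model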
Measured parameter: apparent KD of K4 kissing-loop reporter
State the value with its unit after it.

For orientation, consider the following solved cases.
UGAUACCAGACGGCCGCCACUCCCGCAGGUCAAAGACCUGCGAAGAAGGUUCUUUAGUGAUGUUGGAGGACCGGGUCUGGUAUCU [FiskerMod 21 - Jieux - Exclusion - Tryptophan B]: 735 nM
CCGACUGCAGGAAGGAGCGGCGGUUGGAGUGAUGUUCCGGGUAGUGAUGUUACCAAACUCCGCCAGGUAGGUCGCCUGUUGCUCG [Same State Arginine B GF10]: 151 nM
GGAACGUUGCGGACUAUCGCAUAAAGUCACCGAGGACCGGUACGGCCGCCACUCGCCAGUGAUGUUGGCGUGUUUGCGCGCUGUA [Isteri]: 99.6 nM
AGGCGGCAUGAUUGACUGAAAAGAAAUCAACGAGGACCGGUACGGCCGCCACUCGAACACCAGUGAUGUUGGUAUGGGAUAACCC [Exclusion Tryptophan A GF 19]: 178 nM
UAAGAUAUAAGGGAUACCAGCCAUAAGGAAAGUGUGAUGAGUGAUGUUCUGACAAGCCAAGGCCCUUGGCAGCUUUAAUAGCAUC [Theophylline B Same State; Euphoria Solution]: 303 nM

Any idea what its apparent KD of K4 kissing-loop reporter is? The sequence is CUGGUGCUGAUGCGGUGGCCGGUGGUCGUGCGAGGACCGGUACGGCCGCCACUCGCAUGAGUGAUGUUCAUGUGUCGUCGUCGUC [whbob_EX_Tryp_A_t1] 212 nM

Would you kindly repeat that for AGGAUGUAGUGAUGUUAUAUAAGAAGUAGACGAGGACCGGUACGGCCGCCACUCGAAACGGCUACUAGCGCGUUGCGAGGUGUGC [ExTryptoA.Cg] ? 576 nM

// same read-out, input: GUGACACGUGAUGAUACCAGUCCACGGAAGUUCCUUAGUGAUGUUAACCUUGCUUUUUCUGACCCUUGGCAGCAUUAGUUGAGAA [theeternabot_sameState_KL_Theo_B_42] 332 nM

Similarly, AAUGUACAGGGAAGGAGCGUAGUCCAGUGAUGUUGGAAUUAAAUUCCUGUGAUGUUGGUUAUACAGGUAGGUCGCCCUAAAGUGC [KL-XARG-B21] ? 112 nM

Another: AUUUAAUGUAUAGAUUAUAUACAUAAUUCAGAGGAUAUGCAUAGAAGCAGAAGGCUGGUUGCAGUGAUGUUGCUUUUUUAAUUUA [JR_SSFMNA_Sub008] 30.9 nM
